Sourced from paper PMC11200585

Consider the following GI50 values measured on HCT-15.
Reported property: GI50 (nM)

Smiles str: COc1ccccc1NC1=C(Cl)C(=O)c2nc(C)ccc2C1=O
Quantitative readout: 1330
//
Smiles str: CCOc1ccc(NC2=C(Cl)C(=O)c3nc(C)ccc3C2=O)cc1
Quantitative readout: 1300
//
Smiles str: COc1cc(NC2=C(Cl)C(=O)c3nc(C)ccc3C2=O)cc(OC)c1
Quantitative readout: 1540
//
Smiles str: CCOc1ccccc1NC1=C(Cl)C(=O)c2nc(C)ccc2C1=O
Quantitative readout: 1130

----------
- Assay method text: In vivo bioavailability / pharmacokinetic study IV and PO
- Set-up: species or system male Sprague-Dawley rats
- Recorded conditions: male, Sprague-Dawley, whole blood; rat; PO 5 mg/kg
Reported property: half-life (h)

Molecule: CCOc1ccccc1NC1=C(Cl)C(=O)c2nc(C)ccc2C1=O [AQQ2]
Reported property: half-life
Measure unit: h
Quantitative readout: 4.72
//
Molecule: COc1ccccc1NC1=C(Cl)C(=O)c2nc(C)ccc2C1=O [AQQ1]
Reported property: half-life
Measure unit: h
Quantitative readout: 5.22

----------
GI50 reference
- System: UACC-62
- Assay method text: NCI-60 five-dose assay (melanoma)
- Assay type: cell-based, human
- Recorded conditions: Homo sapiens, 48 h, SRB

Smiles str: COc1ccccc1NC1=C(Cl)C(=O)c2nc(C)ccc2C1=O
GI50, µM: 1.82

Smiles str: CCOc1ccccc1NC1=C(Cl)C(=O)c2nc(C)ccc2C1=O
GI50, µM: 1.8

Smiles str: CCOc1ccc(NC2=C(Cl)C(=O)c3nc(C)ccc3C2=O)cc1
GI50, µM: 1.81

Smiles str: COc1cc(NC2=C(Cl)C(=O)c3nc(C)ccc3C2=O)cc(OC)c1
GI50, µM: 1.77

----------
- Test system: SNB-75
- Assay method text: NCI-60 one-dose screen (CNS cancer)
- Format: cell-based, human
- Recorded conditions: 10 µM single dose, 48 h
- Description: The obtained quinolinequinones were submitted to NCI, Bethesda, USA, and, as per standard protocol of NCI, all compounds were evaluated for their antiproliferative activity at single-dose assay (10 µM concentration in DMSO) on a panel of 60 cancer cell lines derived from leukemia, non-small-cell lung, colon, CNS, melanoma, ovarian, renal, prostate, and breast, as per protocol. Tested compounds were added to the microtiter culture plates followed by incubation for 48 h at 37 °C. […]

Smiles str: COc1ccc(NC2=C(Cl)C(=O)c3nc(C)ccc3C2=O)cc1OC
GP (growth percentage): 110.92%

Smiles str: CCOc1ccc(NC2=C(Cl)C(=O)c3nc(C)ccc3C2=O)cc1
GP (growth percentage): 96.54%

Smiles str: COc1ccccc1NC1=C(Cl)C(=O)c2nc(C)ccc2C1=O
GP (growth percentage): 105.38%

Smiles str: COc1cc(NC2=C(Cl)C(=O)c3nc(C)ccc3C2=O)cc(OC)c1
GP (growth percentage): −4.09%

Smiles str: CCOc1ccccc1NC1=C(Cl)C(=O)c2nc(C)ccc2C1=O
GP (growth percentage): 101.38%

----------
- Assay method text: Log D (experimental, n-octanol)
- Type: physicochemical
- Recorded conditions: n-octanol (aqueous phase not stated)
# reported logD; entries follow

Smiles str: COc1ccccc1NC1=C(Cl)C(=O)c2nc(C)ccc2C1=O
logD: 2.37

Smiles str: CCOc1ccccc1NC1=C(Cl)C(=O)c2nc(C)ccc2C1=O
logD: 2.35
